# Test system: P12-Ichikawa
# assay-remarks: cell viability relative to DMSO control; higher = less cytotoxic
# condition-details: HPLM + 10% dialyzed FBS; 48 h; 0.0632 µM
Consider the following compounds and their measured cell viability readings.

{"columns": ["compound", "assayed-system", "cell viability"],
 "data": [
  ["CCC1=C[C@@H]2CN(C1)Cc1c([nH]c3ccccc13)[C@@](C(=O)OC)(c1cc3c(cc1OC)N(C)[C@H]1[C@@](O)(C(=O)OC)[C@H](OC(C)=O)[C@]4(CC)C=CCN5CC[C@]31[C@@H]54)C2", "P12-Ichikawa", "36.2%"],
  ["COc1cc(N2CCC(C(N)=O)CC2)ccc1Nc1nc(N)c(Cl)c(Nc2ccccc2[S+](=O)([O-])C(C)C)n1", "P12-Ichikawa", "111%"],
  ["CC1SC/2=C(C(O)=O)/C(=O)C3=CC(=C(C=C3N12)N4CCN(CC4)C\\C5=C(C)\\OC(=O)O5)F (centres undefined)", "P12-Ichikawa", "125%"],
  ["CC(C)(C)OC(=O)CN(Cc1ccc(Cl)cc1)Cc1ccc([N+](=O)[O-])s1", "P12-Ichikawa", "99%"]
]}

----------
# Tested on: NOMO1
# assay-remarks: cell viability relative to DMSO control; higher = less cytotoxic
# condition-details: HPLM + 10% dialyzed FBS; 48 h; 0.0211 µM
Consider the following compounds and their measured cell viability readings.
quantity-measured: cell viability (%)

{"columns": ["compound", "reading"],
 "data": [
  ["O=C(NC1CCNCC1)c1n[nH]cc1NC(=O)c1c(Cl)cccc1Cl", 128],
  ["Cl.c1cnc2cc3c(cc2n1)C1CNCC3C1", 103],
  ["O=C(NC1CCOCC1)c1ccc(-c2cc(-c3c[nH]nc3-c3ccccn3)ccn2)cc1", 93.6],
  ["O=C1c2c(O)cccc2[C@H]([C@@H]2O[C@H](CO)[C@@H](O)[C@H](O)[C@H]2O)c2cc(CO)cc(O)c21", 77],
  ["COc1cc2ncnc(-n3nc(-c4ccccn4)nc3N)c2cc1OC", 101],
  ["CC(C)(C)/[N+]([O-])=C/c1ccc([S+](=O)([O-])[O][Na])cc1[S+](=O)([O-])[O][Na]", 115],
  ["CN(C)CCOC(c1ccccc1)c1ccccc1", 116],
  ["CN1C(=O)\\C(=C/C(=C1/NC2=C(F)C=C(I)C=C2)C(=O)NOCCO)C", 64.2],
  ["C[C@H]1CN(C[C@@H](C)O1)CC(=O)NC2=CC=C3SC4=C(CC3=C2)C=CC=C4\\C5=C\\C(=O)\\C=C(/O5)N6CCOCC6", 123],
  ["CN(N=O)C(=O)N[C@H]1C(O)OC(CO)[C@@H](O)[C@@H]1O (some centres undefined)", 95.7],
  ["Nc1ccccc1NC(=O)c1ccc(CNc2nccc(-c3cccnc3)n2)cc1", 118],
  ["N[C@@H](C(=O)N[C@H]1[C@H]2SC\\C(=C(/N2C1=O)C(O)=O)Cl)C3=CC=CC=C3", 136],
  ["NC(=O)N1c2ccccc2CC(=O)c2ccccc21", 126],
  ["CSC1=CC(=CC=C1)NC2=NC3=C(C=N2)/C=C(C(=O)N3C)/C4=C(Cl)C=CC=C4Cl", 101],
  ["C[C@@H]1CC[C@@]2(OC1)O[C@H]3C[C@H]4[C@@H]5C/C=C6/C[C@H](CC[C@]6(C)[C@H]5CC[C@]4(C)[C@H]3[C@@H]2C)O[C@@H]7O[C@H](CO)[C@@H](O[C@@H]8O[C@@H](C)[C@H](O)[C@@H](O)[C@H]8O)[C@H](O)[C@H]7O[C@@H]9O[C@@H](C)[C@H](O)[C@@H](O)[C@H]9O", 127],
  ["Cc1cc(O)c2c3c4c(cc(O)c13)C(C)(C)C(=O)c1c(O)cc(O)c(c1-4)C2=O", 115],
  ["Nc1nc(-c2nn(Cc3ccccc3F)c3ncccc23)nc(N)c1N1CCOCC1", 102],
  ["C=C(C)[C@@H]1CC[C@]2(C)CC[C@]3(C)[C@H](CC[C@@H]4[C@@]5(C)CC[C@H](O)C(C)(C)[C@@H]5CC[C@]43C)[C@@H]12", 123],
  ["Cc1[nH]c(/C=C2\\C(=O)Nc3ccc([S+](=O)([O-])N(C)c4cccc(Cl)c4)cc32)c(C)c1C(=O)N1CCN(C)CC1", 103],
  ["C#CCN(C)[C@H](C)Cc1ccccc1", 87.2],
  ["C[C@@H]1C[C@H]2[C@@H]3\\C=C(C)/C4=C/C5=C(C[C@]4(C)[C@H]3[C@@H](O)C[C@]2(C)[C@@]1(O)C(=O)COC(C)=O)C=N[N]5C6=CC=CC=C6", 113],
  ["O=C1NC(=O)[C@@H](c2cn3c4c(cccc24)CCC3)[C@@H]1c1c[nH]c2ccccc12", 104],
  ["CCCCN(CCCC)CCC(O)c1cc2c(Cl)cc(Cl)cc2c2cc(C(F)(F)F)ccc12 (centres undefined)", 124],
  ["CCNC(=O)C[C@@H]1\\N=C(C2=CC=C(Cl)C=C2)/C3=C(C=CC(=C3)OC)[N]4C(=NN=C14)C", 121]
]}
